Reported abundance fitness values for the following variants.
B1: Tudor domain-containing protein 3, residues 554 to 611; numbered along this chain, Q9H7E2 (parent)
chain: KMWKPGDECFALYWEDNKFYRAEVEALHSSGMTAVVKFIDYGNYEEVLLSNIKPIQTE

Variants of: B1
Test: abundance fitness (aPCA) (normalised: wild type 0, dead -1); higher = more abundant; growth selection in yeast, the domain comes from the species named
Details: Homo sapiens
observation-type: abundance fitness

{"sequence-variant": "V47H", "endpoint-result": -0.733}
{"sequence-variant": "V24C", "endpoint-result": -0.949}
{"sequence-variant": "V24H", "endpoint-result": -0.847}
{"sequence-variant": "E46I", "endpoint-result": -0.488}
{"sequence-variant": "R21W", "endpoint-result": -0.766}
{"sequence-variant": "G6Q", "endpoint-result": -0.832}
{"sequence-variant": "I39N", "endpoint-result": -0.255}
{"sequence-variant": "W3P", "endpoint-result": -0.314}
{"sequence-variant": "N51A", "endpoint-result": -0.308}
{"sequence-variant": "E46K", "endpoint-result": -0.205}
{"sequence-variant": "R21E", "endpoint-result": -0.301}
{"sequence-variant": "Y13M", "endpoint-result": -0.287}
{"sequence-variant": "K18T", "endpoint-result": -0.087}
{"sequence-variant": "L12K", "endpoint-result": 0.01}
{"sequence-variant": "I52D", "endpoint-result": -0.857}
{"sequence-variant": "G31K", "endpoint-result": -0.148}
{"sequence-variant": "N51P", "endpoint-result": -1.02}
{"sequence-variant": "I55N", "endpoint-result": -0.265}
{"sequence-variant": "H28I", "endpoint-result": -0.508}
{"sequence-variant": "I39F", "endpoint-result": -0.083}
{"sequence-variant": "S50H", "endpoint-result": 0.048}
{"sequence-variant": "P54Q", "endpoint-result": -0.188}
{"sequence-variant": "E58V", "endpoint-result": -0.136}
{"sequence-variant": "M2N", "endpoint-result": -0.169}
{"sequence-variant": "K1Q", "endpoint-result": -0.657}
{"sequence-variant": "Y20W", "endpoint-result": -0.305}
{"sequence-variant": "K1G", "endpoint-result": -0.138}
{"sequence-variant": "Y44L", "endpoint-result": -0.05}
{"sequence-variant": "G31E", "endpoint-result": -0.092}
{"sequence-variant": "M32V", "endpoint-result": -0.054}
{"sequence-variant": "Y20C", "endpoint-result": -0.321}
{"sequence-variant": "Y44R", "endpoint-result": 0.171}
{"sequence-variant": "S50V", "endpoint-result": -0.082}
{"sequence-variant": "P5F", "endpoint-result": -0.529}
{"sequence-variant": "V24Y", "endpoint-result": -0.814}
{"sequence-variant": "S29C", "endpoint-result": -0.116}
{"sequence-variant": "W3C", "endpoint-result": -0.509}
{"sequence-variant": "A22I", "endpoint-result": -0.923}
{"sequence-variant": "I55A", "endpoint-result": -0.028}
{"sequence-variant": "T33V", "endpoint-result": -0.232}
{"sequence-variant": "M2L", "endpoint-result": -0.098}
{"sequence-variant": "E15V", "endpoint-result": -0.026}
{"sequence-variant": "Y20M", "endpoint-result": -0.297}

Origin of the recorded values: the Human Domainome abundance scans (Beltran et al. 2025)
